method.description: Hemolytic activity in mouse red blood cells assessed as hemolysis incubated for 1 hr by TECAN SPARK microplate reader analysis
Type: toxicity, cell-based, Erythrocyte
condition.summary: red blood cells (erythrocytes)
Param label: returns criterion met when HC50 at 1 h < 60 µg/mL, returns criterion not met otherwise, including exact equality.

[[record]]
smiles_structure = "CCCCCCN1C(=O)[C@H](CCCCN)N(Cc2ccc(C#Cc3ccc(CN4C(=O)N(CCCCCC)C(=O)[C@@H]4CCCCN)cc3)cc2)C1=O"
label_value = "criterion met"

[[record]]
smiles_structure = "CCCCCCN1C(=O)[C@H](CCCCN)N(Cc2ccc(-c3ccc(CN4C(=O)N(CCCCCC)C(=O)[C@@H]4CCCCN)cc3)cc2)C1=O"
label_value = "criterion met"

[[record]]
smiles_structure = "CCCCCN1C(=O)[C@H](CCCCN)N(Cc2ccc(-c3ccc(CN4C(=O)N(CCCCC)C(=O)[C@@H]4CCCCN)cc3)cc2)C1=O"
label_value = "criterion not met"

[[record]]
smiles_structure = "CCCCCCN1C(=O)[C@H](CCCCNC(=N)N)N(Cc2cccc(-c3cccc(CN4C(=O)N(CCCCCC)C(=O)[C@@H]4CCCCNC(=N)N)c3)c2)C1=O"
label_value = "criterion not met"

[[record]]
smiles_structure = "CCCCCCCN1C(=O)[C@H](CCCCN)N(Cc2ccc(-c3ccc(CN4C(=O)N(CCCCCCC)C(=O)[C@@H]4CCCCN)cc3)cc2)C1=O"
label_value = "criterion not met"

[[record]]
smiles_structure = "CCCCCCN1C(=O)[C@H](CCCCN)N(Cc2ccc(/C=C/c3ccc(CN4C(=O)N(CCCCCC)C(=O)[C@@H]4CCCCN)cc3)cc2)C1=O"
label_value = "criterion met"


###

method.description: Hemolytic activity in mouse red blood cells assessed as hemolysis incubated for 1 hr by TECAN SPARK microplate reader analysis
Format: toxicity, cell-based, Erythrocyte
condition.summary: red blood cells (erythrocytes)
Catalogue of molecules with associated HC50 at 1 h
measurement.name: HC50 at 1 h

[[record]]
smiles_structure = "NCCCC[C@H]1C(=O)N(C23C[C@H]4C[C@@H](C2)C[C@@H](C3)C4)C(=O)N1Cc1ccc(-c2ccc(CN3C(=O)N(C45C[C@H]6C[C@@H](C4)C[C@@H](C5)C6)C(=O)[C@@H]3CCCCN)cc2)cc1"
measured_result = "33.6 µg/mL"

[[record]]
smiles_structure = "CCCCCCN1C(=O)[C@H](CCCCN)N(Cc2cccc(-c3cccc(CN4C(=O)N(CCCCCC)C(=O)[C@@H]4CCCCN)c3)c2)C1=O"
measured_result = "38 µg/mL"

[[record]]
smiles_structure = "CCCCCCN1C(=O)[C@H](CCCCNC(=N)N)N(Cc2ccc(-c3ccc(CN4C(=O)N(CCCCCC)C(=O)[C@@H]4CCCCNC(=N)N)cc3)cc2)C1=O"
measured_result = "61 µg/mL"

